# Run description: Cytotoxicity assay
# Type: cell-based
# Condition set: mouse, J774A.1 murine macrophage cells
Recorded metric: CC50 at 24 h

CCCCCCCCCCCCCCCCOP(=O)([O-])OCC[N+](C)(C)C | 128 µM

Switching to the query record.
Ask: Report CC50 at 24 h for C[C@@H]1[C@H](O)[C@@H](C)/C=C/C=C/C=C/C=C/C=C/C=C/C=C/[C@H](O[C@@H]2O[C@H](C)[C@@H](O)[C@H](N)[C@@H]2O)C[C@@H]2O[C@](O)(C[C@@H](O)C[C@@H](O)[C@H](O)CC[C@@H](O)C[C@@H](O)CC(=O)O[C@H]1C)C[C@H](O)[C@H]2C(=O)O please.
Reply: ≥ 200 µM
